Test system: HSSY-II complex spheroid growth, percent test/control
Test: Anticancer human tumor HSSY-II cell line growth inhibition [Asc];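 also: spheroids exposed to drug for 7 days before reading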
Conditions: second compound 0.01 µM; first compound 0.0316 µM; stronger effect = lower value
As shown below, each of these molecules has a reported viability, T/C value.

>  <Molecule>
C#Cc1c(F)ccc2cc(O)cc(-c3ncc4c(N5CC6CCC(C5)N6)nc(OCC56CCCN5CC(F)C6)nc4c3F)c12 (stereo not given) + CNC(C)C(=O)NC1CN(S(=O)(=O)c2cccc(S(=O)(=O)N3CCC4CCC(C(=O)NC(c5ccccc5)c5ccccc5)N4C(=O)C(NC(=O)C(C)NC)C3)c2)CCC2CCC(C(=O)NC(c3ccccc3)c3ccccc3)N2C1=O

>  <viability, T/C (%)>
100

$$$$
>  <Molecule>
CCN1CCN(Cc2ccc(Nc3ncc(F)c(-c4cc(F)c5nc(C)n(C(C)C)c5c4)n3)nc2)CC1 + CNC(C)C(=O)NC1CN(S(=O)(=O)c2cccc(S(=O)(=O)N3CCC4CCC(C(=O)NC(c5ccccc5)c5ccccc5)N4C(=O)C(NC(=O)C(C)NC)C3)c2)CCC2CCC(C(=O)NC(c3ccccc3)c3ccccc3)N2C1=O

>  <viability, T/C (%)>
60.6

$$$$
>  <Molecule>
C=C(F)C(=O)N1CCN(c2nc(OCC3CCCN3C)nc3c2CCN(c2cccc4cccc(Cl)c24)C3)CC1CC#N (stereo not given) + CNC(C)C(=O)NC1CN(S(=O)(=O)c2cccc(S(=O)(=O)N3CCC4CCC(C(=O)NC(c5ccccc5)c5ccccc5)N4C(=O)C(NC(=O)C(C)NC)C3)c2)CCC2CCC(C(=O)NC(c3ccccc3)c3ccccc3)N2C1=O

>  <viability, T/C (%)>
95.8

$$$$
>  <Molecule>
O=C(c1ccc(F)c(F)c1Nc1ccc(I)cc1F)N1CC(O)([C@@H]2CCCCN2)C1 + CNC(C)C(=O)NC1CN(S(=O)(=O)c2cccc(S(=O)(=O)N3CCC4CCC(C(=O)NC(c5ccccc5)c5ccccc5)N4C(=O)C(NC(=O)C(C)NC)C3)c2)CCC2CCC(C(=O)NC(c3ccccc3)c3ccccc3)N2C1=O

>  <viability, T/C (%)>
112

$$$$
>  <Molecule>
C=CC(=O)N1CCN(c2nc(=O)n(-c3c(C)ccnc3C(C)C)c3nc(-c4c(O)cccc4F)c(F)cc23)C(C)C1 (stereo not given) + CNC(C)C(=O)NC1CN(S(=O)(=O)c2cccc(S(=O)(=O)N3CCC4CCC(C(=O)NC(c5ccccc5)c5ccccc5)N4C(=O)C(NC(=O)C(C)NC)C3)c2)CCC2CCC(C(=O)NC(c3ccccc3)c3ccccc3)N2C1=O

>  <viability, T/C (%)>
97.5

$$$$

---

List of viability, T/C values.
Test system: HSSY-II complex spheroid growth, percent test/control
Test: Anticancer human tumor HSSY-II cell line growth inhibition [Asc];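 also: spheroids exposed to drug for 7 days before reading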
Conditions: second compound 3 µM; first compound 0.0316 µM; stronger effect = lower value
Quantity: viability, T/C (%)

>  <Compound>
CNC(C)C(=O)NC1CN(S(=O)(=O)c2cccc(S(=O)(=O)N3CCC4CCC(C(=O)NC(c5ccccc5)c5ccccc5)N4C(=O)C(NC(=O)C(C)NC)C3)c2)CCC2CCC(C(=O)NC(c3ccccc3)c3ccccc3)N2C1=O (centres undefined) + CCN1C(C(=O)NC23CCC(C(=O)O)(CC2)CC3)C(c2cccc(Cl)c2F)C2(C(=O)Nc3cc(Cl)ccc32)C12CCCCC2

>  <Target Entity>
HSSY-II complex spheroid growth, percent test/control

>  <Recorded Result>
0.48

$$$$
>  <Compound>
C#Cc1c(F)ccc2cc(O)cc(-c3ncc4c(N5CC6CCC(C5)N6)nc(OCC56CCCN5CC(F)C6)nc4c3F)c12 (centres undefined) + CCN1C(C(=O)NC23CCC(C(=O)O)(CC2)CC3)C(c2cccc(Cl)c2F)C2(C(=O)Nc3cc(Cl)ccc32)C12CCCCC2

>  <Target Entity>
HSSY-II complex spheroid growth, percent test/control

>  <Recorded Result>
2.13

$$$$
>  <Compound>
CCN1CCN(Cc2ccc(Nc3ncc(F)c(-c4cc(F)c5nc(C)n(C(C)C)c5c4)n3)nc2)CC1 + CCN1C(C(=O)NC23CCC(C(=O)O)(CC2)CC3)C(c2cccc(Cl)c2F)C2(C(=O)Nc3cc(Cl)ccc32)C12CCCCC2

>  <Target Entity>
HSSY-II complex spheroid growth, percent test/control

>  <Recorded Result>
2.95

$$$$
>  <Compound>
C=C(F)C(=O)N1CCN(c2nc(OCC3CCCN3C)nc3c2CCN(c2cccc4cccc(Cl)c24)C3)CC1CC#N (centres undefined) + CCN1C(C(=O)NC23CCC(C(=O)O)(CC2)CC3)C(c2cccc(Cl)c2F)C2(C(=O)Nc3cc(Cl)ccc32)C12CCCCC2

>  <Target Entity>
HSSY-II complex spheroid growth, percent test/control

>  <Recorded Result>
3.47

$$$$

---

Test system: HSSY-II complex spheroid growth, percent test/control
Assay: Anticancer human tumor HSSY-II cell line growth inhibition [Asc];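 also: spheroids exposed to drug for 7 days before reading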
Conditions: second compound 1 µM; first compound 1 µM; stronger effect = lower value
Below: a set of entries, each annotated with reported viability, T/C.
Quantity: viability, T/C (%)

>  <Molecule>
CNC(C)C(=O)NC1CN(S(=O)(=O)c2cccc(S(=O)(=O)N3CCC4CCC(C(=O)NC(c5ccccc5)c5ccccc5)N4C(=O)C(NC(=O)C(C)NC)C3)c2)CCC2CCC(C(=O)NC(c3ccccc3)c3ccccc3)N2C1=O (stereo unspecified) + Cc1c(S(C)(=O)=O)c(-c2cc(F)cc(N3CCN(c4ccc(NS(=O)(=O)c5ccc(NC(CCN6CCC(C(=O)OCCCP(=O)(O)O)CC6)CSc6ccccc6)c(S(=O)(=O)C(F)(F)F)c5)cc4)CC3)c2)c(-c2ccc(Cl)cc2)n1C(C)C

>  <Recorded Result>
90.9

$$$$
>  <Molecule>
O=C(c1ccc(F)c(F)c1Nc1ccc(I)cc1F)N1CC(O)([C@@H]2CCCCN2)C1 + Cc1c(S(C)(=O)=O)c(-c2cc(F)cc(N3CCN(c4ccc(NS(=O)(=O)c5ccc(NC(CCN6CCC(C(=O)OCCCP(=O)(O)O)CC6)CSc6ccccc6)c(S(=O)(=O)C(F)(F)F)c5)cc4)CC3)c2)c(-c2ccc(Cl)cc2)n1C(C)C

>  <Recorded Result>
20.8

$$$$
>  <Molecule>
CCN1CCN(Cc2ccc(Nc3ncc(F)c(-c4cc(F)c5nc(C)n(C(C)C)c5c4)n3)nc2)CC1 + Cc1c(S(C)(=O)=O)c(-c2cc(F)cc(N3CCN(c4ccc(NS(=O)(=O)c5ccc(NC(CCN6CCC(C(=O)OCCCP(=O)(O)O)CC6)CSc6ccccc6)c(S(=O)(=O)C(F)(F)F)c5)cc4)CC3)c2)c(-c2ccc(Cl)cc2)n1C(C)C

>  <Recorded Result>
24.9

$$$$
>  <Molecule>
O=C(c1cc(Cc2n[nH]c(=O)c3ccccc23)ccc1F)N1CCN(C(=O)C2CC2)CC1 + Cc1c(S(C)(=O)=O)c(-c2cc(F)cc(N3CCN(c4ccc(NS(=O)(=O)c5ccc(NC(CCN6CCC(C(=O)OCCCP(=O)(O)O)CC6)CSc6ccccc6)c(S(=O)(=O)C(F)(F)F)c5)cc4)CC3)c2)c(-c2ccc(Cl)cc2)n1C(C)C

>  <Recorded Result>
64.1

$$$$
>  <Molecule>
C#Cc1c(F)ccc2cc(O)cc(-c3ncc4c(N5CC6CCC(C5)N6)nc(OCC56CCCN5CC(F)C6)nc4c3F)c12 (stereo unspecified) + CNC(C)C(=O)NC1CN(S(=O)(=O)c2cccc(S(=O)(=O)N3CCC4CCC(C(=O)NC(c5ccccc5)c5ccccc5)N4C(=O)C(NC(=O)C(C)NC)C3)c2)CCC2CCC(C(=O)NC(c3ccccc3)c3ccccc3)N2C1=O

>  <Recorded Result>
86.1

$$$$
>  <Molecule>
C=CC(=O)N1CCN(c2nc(=O)n(-c3c(C)ccnc3C(C)C)c3nc(-c4c(O)cccc4F)c(F)cc23)C(C)C1 (stereo unspecified) + CNC(C)C(=O)NC1CN(S(=O)(=O)c2cccc(S(=O)(=O)N3CCC4CCC(C(=O)NC(c5ccccc5)c5ccccc5)N4C(=O)C(NC(=O)C(C)NC)C3)c2)CCC2CCC(C(=O)NC(c3ccccc3)c3ccccc3)N2C1=O

>  <Recorded Result>
73.5

$$$$

---

Measured viability, T/C values are reported for all entries that follow.
Tested on: HSSY-II complex spheroid growth, percent test/control
Assay: Anticancer human tumor HSSY-II cell line growth inhibition [Asc];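 also: spheroids exposed to drug for 7 days before reading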
Settings: second compound 0.0316 µM; first compound 0.0316 µM; stronger effect = lower value
Quantity: viability, T/C

>  <Molecule>
COc1c(OCCCN2CCOCC2)ccc2c3n(c(=NC(=O)c4cnc(N)nc4)nc12)CCN3 + CNC(C)C(=O)NC1CN(S(=O)(=O)c2cccc(S(=O)(=O)N3CCC4CCC(C(=O)NC(c5ccccc5)c5ccccc5)N4C(=O)C(NC(=O)C(C)NC)C3)c2)CCC2CCC(C(=O)NC(c3ccccc3)c3ccccc3)N2C1=O

>  <Recorded Result>
54.8%

$$$$
>  <Molecule>
Cn1ncnc1[C@H]1c2n[nH]c(=O)c3cc(F)cc(c23)N[C@@H]1c1ccc(F)cc1 + CNC(C)C(=O)NC1CN(S(=O)(=O)c2cccc(S(=O)(=O)N3CCC4CCC(C(=O)NC(c5ccccc5)c5ccccc5)N4C(=O)C(NC(=O)C(C)NC)C3)c2)CCC2CCC(C(=O)NC(c3ccccc3)c3ccccc3)N2C1=O

>  <Recorded Result>
36.8%

$$$$
>  <Molecule>
C#Cc1c(F)ccc2cc(O)cc(-c3ncc4c(N5CC6CCC(C5)N6)nc(OCC56CCCN5CC(F)C6)nc4c3F)c12 (centres undefined) + CNC(C)C(=O)NC1CN(S(=O)(=O)c2cccc(S(=O)(=O)N3CCC4CCC(C(=O)NC(c5ccccc5)c5ccccc5)N4C(=O)C(NC(=O)C(C)NC)C3)c2)CCC2CCC(C(=O)NC(c3ccccc3)c3ccccc3)N2C1=O

>  <Recorded Result>
100%

$$$$
>  <Molecule>
NC1CCC(NC2CC2c2ccccc2)CC1 (centres undefined) + CNC(C)C(=O)NC1CN(S(=O)(=O)c2cccc(S(=O)(=O)N3CCC4CCC(C(=O)NC(c5ccccc5)c5ccccc5)N4C(=O)C(NC(=O)C(C)NC)C3)c2)CCC2CCC(C(=O)NC(c3ccccc3)c3ccccc3)N2C1=O

>  <Recorded Result>
45.5%

$$$$
>  <Molecule>
O=C(c1ccc(F)c(F)c1Nc1ccc(I)cc1F)N1CC(O)([C@@H]2CCCCN2)C1 + CNC(C)C(=O)NC1CN(S(=O)(=O)c2cccc(S(=O)(=O)N3CCC4CCC(C(=O)NC(c5ccccc5)c5ccccc5)N4C(=O)C(NC(=O)C(C)NC)C3)c2)CCC2CCC(C(=O)NC(c3ccccc3)c3ccccc3)N2C1=O

>  <Recorded Result>
99.2%

$$$$
>  <Molecule>
C=CC(=O)N1CCN(c2nc(=O)n(-c3c(C)ccnc3C(C)C)c3nc(-c4c(O)cccc4F)c(F)cc23)C(C)C1 (centres undefined) + CNC(C)C(=O)NC1CN(S(=O)(=O)c2cccc(S(=O)(=O)N3CCC4CCC(C(=O)NC(c5ccccc5)c5ccccc5)N4C(=O)C(NC(=O)C(C)NC)C3)c2)CCC2CCC(C(=O)NC(c3ccccc3)c3ccccc3)N2C1=O

>  <Recorded Result>
92.9%

$$$$
>  <Molecule>
C=C(F)C(=O)N1CCN(c2nc(OCC3CCCN3C)nc3c2CCN(c2cccc4cccc(Cl)c24)C3)CC1CC#N (centres undefined) + CNC(C)C(=O)NC1CN(S(=O)(=O)c2cccc(S(=O)(=O)N3CCC4CCC(C(=O)NC(c5ccccc5)c5ccccc5)N4C(=O)C(NC(=O)C(C)NC)C3)c2)CCC2CCC(C(=O)NC(c3ccccc3)c3ccccc3)N2C1=O

>  <Recorded Result>
89.3%

$$$$
>  <Molecule>
CCN1CCN(Cc2ccc(Nc3ncc(F)c(-c4cc(F)c5nc(C)n(C(C)C)c5c4)n3)nc2)CC1 + CNC(C)C(=O)NC1CN(S(=O)(=O)c2cccc(S(=O)(=O)N3CCC4CCC(C(=O)NC(c5ccccc5)c5ccccc5)N4C(=O)C(NC(=O)C(C)NC)C3)c2)CCC2CCC(C(=O)NC(c3ccccc3)c3ccccc3)N2C1=O

>  <Recorded Result>
66.7%

$$$$
>  <Molecule>
O=C(c1cc(Cc2n[nH]c(=O)c3ccccc23)ccc1F)N1CCN(C(=O)C2CC2)CC1 + CNC(C)C(=O)NC1CN(S(=O)(=O)c2cccc(S(=O)(=O)N3CCC4CCC(C(=O)NC(c5ccccc5)c5ccccc5)N4C(=O)C(NC(=O)C(C)NC)C3)c2)CCC2CCC(C(=O)NC(c3ccccc3)c3ccccc3)N2C1=O

>  <Recorded Result>
86.3%

$$$$
